Values from patent US6562978B1

target: human CCR5 (Homo sapiens, UniProt P51681); construct: expressed in transfected cells; whole cells in the well; assay: CCR5 binding assay: inhibition of [125I]-RANTES binding to CHO/CCR5 cells; settings: 1.0 μM test compound, 100 pM [125I]-RANTES, room temperature 40 minutes, read-out: Inhibition Rate (%) at 1.0 μM
Sequence (P51681 whole entry): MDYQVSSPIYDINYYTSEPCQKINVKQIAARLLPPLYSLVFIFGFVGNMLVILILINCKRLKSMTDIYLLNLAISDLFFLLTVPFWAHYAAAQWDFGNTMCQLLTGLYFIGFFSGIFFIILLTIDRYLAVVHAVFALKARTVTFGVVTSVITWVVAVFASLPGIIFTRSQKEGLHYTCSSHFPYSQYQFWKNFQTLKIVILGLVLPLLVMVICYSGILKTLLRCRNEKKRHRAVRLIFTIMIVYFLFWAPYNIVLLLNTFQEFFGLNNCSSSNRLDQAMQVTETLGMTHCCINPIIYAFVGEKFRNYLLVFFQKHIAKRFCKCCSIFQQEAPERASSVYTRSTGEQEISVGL
Counter-ions that a name gives are not always drawn.
Record form. Attribute: inhibition at 1 µM. Fill in for each entry.
Phrase the answer as number then unit, nothing more needed.

// known answers, use as guide
> print(dat)
                                   compound  test.result
1  CC(=O)N1CCC(C(=O)N(CCCN2CCC(S(=O)(=O)c3ccc(F)cc3)CC2)c2ccc(Cl)c(Cl)c2)CC1         100%
2  CCN(C1CCN(CCCN(C(=O)C2CCN(S(C)(=O)=O)CC2)c2ccc(Cl)c(Cl)c2)CC1)S(=O)(=O)c1ccc(S(C)(=O)=O)cc1          98%
3  CC(=O)N1CCC(C(=O)N(CCCN2CCC(C#N)(Cc3ccccc3)CC2)c2cccc(Cl)c2)CC1          84%
4  CC(=O)N1CCC(C(=O)N(CCCN2CCC(Cc3ccccc3)CC2)c2ccccc2)CC1          98%

Please go through the list and note inhibition at 1 µM for each compound.
1. CC(=O)N1CCC(C(=O)N(CCCN2CCC(Cc3ccc(N4CCOCC4)cc3)CC2)c2ccc(Cl)c(Cl)c2)CC1
2. CC(=O)N1CCC(C(=O)N(CCCN2CCC(Cc3ccc(C(N)=O)cc3)CC2)c2ccc(C)c(Cl)c2)CC1
3. NC(=O)C(=O)N1CCC(C(=O)N(CCCN2CCC(Cc3ccc(F)cc3)CC2)c2ccc(Cl)c(Cl)c2)CC1 [Example 150, Trifluoroacetate]

1: 100%; 2: 97%; 3: 98%
